# TEST_SYSTEM: recombinant human mu opioid receptor (Homo sapiens, UniProt P35372)
# Construct: expressed in transfected cells; host or cells: HEK293 (membranes)
# Sequence (P35372 whole entry): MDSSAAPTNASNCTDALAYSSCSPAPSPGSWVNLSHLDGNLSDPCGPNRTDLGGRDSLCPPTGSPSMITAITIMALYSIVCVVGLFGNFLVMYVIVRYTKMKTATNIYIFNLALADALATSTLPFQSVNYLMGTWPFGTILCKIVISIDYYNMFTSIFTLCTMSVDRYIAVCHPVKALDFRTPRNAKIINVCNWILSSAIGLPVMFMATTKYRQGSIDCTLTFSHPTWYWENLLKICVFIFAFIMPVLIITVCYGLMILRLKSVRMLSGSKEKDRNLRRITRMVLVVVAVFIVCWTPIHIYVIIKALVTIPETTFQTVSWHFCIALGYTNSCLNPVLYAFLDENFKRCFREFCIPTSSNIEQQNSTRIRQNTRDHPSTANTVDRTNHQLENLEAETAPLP
# ASSAY_OVERVIEW: Opioid receptor radioligand binding assay, mu
# RECORDED_CONDITIONS: ratio of Mu IC50 to Kappa IC50
REPORTED_PROPERTY: Selectivity μ/k

compound="CN(C(=O)C1CC1c1ccoc1)C1CCC2(O)C3Cc4ccc(O)c5c4C2(CCN3CC2(O)CC2)C1O5 (single isomer, unassigned) [Compound 16a]" test_system="recombinant human mu opioid receptor (Homo sapiens, UniProt P35372)" reported_property="Selectivity μ/k" measured=1.65
compound="CN(C(=O)C1CC1c1ccsc1)C1CCC2(O)C3Cc4ccc(O)c5c4C2(CCN3CC2(O)CC2)C1O5 (single isomer, unassigned) [Compound 18a]" test_system="recombinant human mu opioid receptor (Homo sapiens, UniProt P35372)" reported_property="Selectivity μ/k" measured=1.63
compound="CN(C(=O)[C@@H]1C[C@H]1c1ccc(O)cc1)[C@H]1CC[C@@]2(O)[C@H]3Cc4ccc(O)c5c4[C@@]2(CCN3CC2(O)CC2)[C@H]1O5 [Compound 20b]" test_system="recombinant human mu opioid receptor (Homo sapiens, UniProt P35372)" reported_property="Selectivity μ/k" measured=0.50
compound="CN(C(=O)C1CC1c1ccoc1)C1CCC2(O)C3Cc4ccc(O)c5c4C2(CCN3CC2(O)CC2)C1O5 (single isomer, unassigned) [Compound 16b]" test_system="recombinant human mu opioid receptor (Homo sapiens, UniProt P35372)" reported_property="Selectivity μ/k" measured=1.07
compound="CN(C(=O)C1CC1c1ccsc1)C1CCC2(O)C3Cc4ccc(O)c5c4C2(CCN3CC2(O)CC2)C1O5 (single isomer, unassigned) [Compound 19a]" test_system="recombinant human mu opioid receptor (Homo sapiens, UniProt P35372)" reported_property="Selectivity μ/k" measured=8.05
compound=CN(C(=O)[C@H]1C[C@@H]1c1ccoc1)[C@H]1CC[C@@]2(O)[C@H]3Cc4ccc(O)c5c4[C@@]2(CCN3CC2CC2)[C@H]1O5 test_system="recombinant human mu opioid receptor (Homo sapiens, UniProt P35372)" reported_property="Selectivity μ/k" measured=5.85
compound=CN(C(=O)[C@@H]1C[C@H]1c1ccoc1)[C@@H]1CC[C@@]2(O)[C@H]3Cc4ccc(O)c5c4[C@@]2(CCN3CC2CC2)[C@H]1O5 test_system="recombinant human mu opioid receptor (Homo sapiens, UniProt P35372)" reported_property="Selectivity μ/k" measured=0.45
compound="CN(C(=O)[C@@H]1C[C@H]1c1ccoc1)[C@@H]1CC[C@@]2(O)[C@H]3Cc4ccc(O)c5c4[C@@]2(CCN3CC2(O)CC2)[C@H]1O5 [Compound 17b]" test_system="recombinant human mu opioid receptor (Homo sapiens, UniProt P35372)" reported_property="Selectivity μ/k" measured=6.99
compound=CN(C(=O)[C@@H]1C[C@H]1c1ccoc1)[C@H]1CC[C@@]2(O)[C@H]3Cc4ccc(O)c5c4[C@@]2(CCN3CC2CC2)[C@H]1O5 test_system="recombinant human mu opioid receptor (Homo sapiens, UniProt P35372)" reported_property="Selectivity μ/k" measured=2.16
compound="CN(C(=O)C1CC1c1ccsc1)C1CCC2(O)C3Cc4ccc(O)c5c4C2(CCN3CC2(O)CC2)C1O5 (single isomer, unassigned) [Compound 18b]" test_system="recombinant human mu opioid receptor (Homo sapiens, UniProt P35372)" reported_property="Selectivity μ/k" measured=12.5
compound="CN(C(=O)C1CC1c1ccc(O)cc1)C1CCC2(O)C3Cc4ccc(O)c5c4C2(CCN3CC2(O)CC2)C1O5 (single isomer, unassigned) [Compound 21a]" test_system="recombinant human mu opioid receptor (Homo sapiens, UniProt P35372)" reported_property="Selectivity μ/k" measured=1.47
compound="CN(C(=O)[C@@H]1C[C@H]1c1ccsc1)[C@@H]1CC[C@@]2(O)[C@H]3Cc4ccc(O)c5c4[C@@]2(CCN3CC2(O)CC2)[C@H]1O5 [Compound 19b]" test_system="recombinant human mu opioid receptor (Homo sapiens, UniProt P35372)" reported_property="Selectivity μ/k" measured=13.0
